# Test target: GP of authentic (wild-type) BDBV (Bundibugyo virus (BDBV))
# Assay text: cell-based or functional assay
Reported metric: Microneut. WT IC50 (pM)
Answers are plain numbers, in pM.

mAb PE-24 (antibody, V domains shown) VH: EVQLVESGGGLVQPGGSLRLSCAASGFTFSSYAMSWVRQAPGKGLEWVSEISGLGGSTYYADSAKGRFTISRDNSKSTLYLQMNSLRAEDTAVYYCAKDHRVWAPGYYFDHWGQGTLVTVSS VL: DIVLTQSPSTLSASVGDRVTITCRASQSISSWLAWYQQKPGKAPKLLIYDASSLESGVPSRFSGSGSGTEFTLTISSLQPDDFATYFCQQYNRSPTFGGGTKVEIK; 300
mAb PE-16 (antibody, V domains shown) VH: QVQLVQSGAEVTKPGASVKVSCKASGYTFTTYYMHWVRQAPGQGLEWVGIINPSGGITRYAQKFQGRVTLTRDTSTTTVYMELSSLRSEDTAVYYCARDRYPVLFATDYGMDVWGQGTTVTVSS VL: DIVMTQSPATLSLSPGERATLSCRASQSVSGYLAWYQQKPGQAPRLLIYDASNRATGIPARFSGSGSGTDFTLTISSLEPEDFAVYYCQQRSIWPPGVTFGGGTKVEIK; 200
mAb PE-47 (antibody, V domains shown) VH: EVQLVESGGGLVKPGGSLRLSCAASGFTFSNAWMSWVRQAPGEGLEWVGRIKSKTDGGTIDYAAPVKGRFTISRDDSKNTVYLQMTSLKTEDTAVYYCTTYTEDMQYFDWLLRGGETFDYWGQGTLVTVSS VL: DIQMTQSPSSLSASVGDRVTITCRASQYISTYLNWYQQKPGKAPKLLIYAAYNLQSGVPSRFSGSGSGTDFTLTISSLQPEDFATYYCQQSYSTPGRYTFGQGTKVEIK; 500

// Microneut. WT IC50 lookup, key: mAb PE-87 (antibody, V domains shown) VH: QVQLVQSGVTLVQPGGSLRVSCAASGFTFSSYAMSWVRQAPGKGLEWVSAISGLGGSTYYADSVKGRFTISRDNSKNTLYLQMNSLRAEDTAVYYCAKDHRVWAAGYHFDYWGQGALVTVSS VL: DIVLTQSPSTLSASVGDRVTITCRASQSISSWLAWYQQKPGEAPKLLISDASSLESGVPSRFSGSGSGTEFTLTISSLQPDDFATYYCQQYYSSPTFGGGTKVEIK 400
